Answer each item with its documented log2 fold change of degron read counts.
# SUBJECT OF TEST: T1, CRBN, Q96SW2
# T1 chain: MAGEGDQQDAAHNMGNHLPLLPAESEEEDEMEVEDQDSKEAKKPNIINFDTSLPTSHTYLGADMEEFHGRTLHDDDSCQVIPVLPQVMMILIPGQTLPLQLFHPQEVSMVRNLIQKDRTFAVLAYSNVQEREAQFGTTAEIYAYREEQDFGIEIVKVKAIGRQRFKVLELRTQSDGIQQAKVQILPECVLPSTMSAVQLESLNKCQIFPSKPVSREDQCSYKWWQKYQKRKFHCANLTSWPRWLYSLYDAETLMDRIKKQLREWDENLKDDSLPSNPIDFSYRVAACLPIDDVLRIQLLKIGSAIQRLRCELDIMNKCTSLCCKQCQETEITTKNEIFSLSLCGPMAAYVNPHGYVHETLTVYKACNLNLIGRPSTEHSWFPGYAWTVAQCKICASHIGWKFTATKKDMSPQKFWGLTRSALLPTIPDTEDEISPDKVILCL
# EXPERIMENT SUMMARY: log2 fold change of degron read counts, EGFP-low vs EGFP+ sorted cells (limma voom), compound-induced degradation; higher = more compound-induced degradation of the degron-EGFP fusion; degrons are variants of IKZF1/3 zinc finger 2; compound dose not given here;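 further: pooled lentiviral library of zinc finger degron-EGFP fusions in mCherry-positive Jurkat cells, FACS-sorted after compound exposure, with degron abundance counted by next-generation sequencing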
# CONDITION DESCRIPTION: Jurkat; 18 h; compound: compound 22 (5-morpholino-thalidomide)
The full ranking holds about 8,300 sequences; the median of “log2 fold change of degron read counts, EGFP-low vs EGFP+ sorted cells (limma voom), compound-induced degradation” is about -1.1, and the highest 2% start at about 3.2. For the sample, the highest values were picked, then their nearest neighbours and some sequences at random.

Solved cases (2 shown):
1) FHCNICGAPFTQKGNLLRHIKL [46F_47H_49N_50I_52G_53A_54P_55F_67L_, Q9UKT9] = 3.01
2) FGCPVCGAGFTQKGNLLRHIKL [46F_47G_49P_50V_52G_53A_54G_55F_67L_, Q9UKT9] = 1.13

# per-item lookup of log2 fold change of degron read counts; items listed below
1. FTCEICGHLFTQKGNLLRHIKL [46F_47T_49E_50I_52G_53H_54L_55F_67L_, Q9UKT9]
2. FCCPVCGAGFTQKGNLLRHIKL [46F_47C_49P_50V_52G_53A_54G_55F_67L_, Q9UKT9]
3. FFCPVCGAGFTQKGNLLRHIKL [46F_47F_49P_50V_52G_53A_54G_55F_67L_, Q9UKT9]
4. FSCNICGAPFTQKGNLLRHIKL [46F_47S_49N_50I_52G_53A_54P_55F_67L_, Q9UKT9]
5. FACPVCGAGFTQKGNLLRHIKL [46F_47A_49P_50V_52G_53A_54G_55F_67L_, Q9UKT9]

A)
[-3.75, 1.65, 2.03, 2.26, 1.04]
